System: MS2 coat protein
Procedure Details: apparent KD of MS2 coat protein; designed switch direction (-1 OFF switch, 1 ON switch): -1; higher = weaker reporter binding
Condition Parameters: input ligand: none
The label depends only on apparent KD of MS2 coat protein: criterion met if it is at least 0.06 µM, criterion not met if it is smaller.

| Sequence Chain | Class Name |
| --- | --- |
| UUAAUGUCAGGAUAUGCUUAAUAUAUUAUAUUAUAAUAUAUACAUGAGGAUCACCCAUGUAGAAGGGACAUUAU [LRO-Excl2-03-Fireball XL5] (Eterna round: R97, puzzle: Exclusion 2) | criterion not met |
| UCACCGCAAGGAUAUACUUGCGGUGAUGUUCGAAAUCUUCUACUUGAGGAUCACCCAAGUAGAAGGUGCGGUGA [jl-ex2.4.66 ViennaUCT mod] (Eterna round: R97, puzzle: Exclusion 2) | criterion not met |
| GGUUGGCGAGGAUAUACAUGAGGAUCACCCAUGUGGUCCUAAAAUAAAAUAGACCUUUGUAGAAGGCGCGGGUC [salish99_ex3_r4_040] (Eterna round: R97, puzzle: Exclusion 3) | criterion met |

Now for another entry.
Q: Does apparent KD of MS2 coat protein meet or surpass 0.06 µM for GACGACUCGUCAGGAUAUGUAAACGAGCAAUUGACAGAAGGGACACUGUCGAGGGUACACAUGAGGAUCACCCAUGUACUCGUC [Eternabot solution 40] (Eterna round: R96, puzzle: Exclusion NG 1) ?
A: criterion not met

* * *

This section presents sequences with their documented apparent KD of MS2 coat protein values.
Tested on: MS2 coat protein
Procedure Details: apparent KD of MS2 coat protein; higher = weaker reporter binding
Condition Parameters: Eterna round: R107; input ligand: theophylline 2 mM
Answer with a number only, understood to be in nM.

Example sequences with recorded apparent KD of MS2 coat protein:
| Sequence Chain | Measurement Unit | apparent KD of MS2 coat protein |
| --- | --- | --- |
| CGGCCCUCACUUGAGGAACACCCAAGUGAUACCAGCCUGGAAACAGGCCCUUGGCAGCACUAGGUCAUCAAAGAUGACCAAGCCG [TheoAX 29 #OpenEnded #AlternativeMS2] | nM | 373 |
| UGUUUUUAUCGAAGGAGCGCCGCAUGAGGAUCACCCAUGCACAUGAGGAUCACCCAUGUCUGGCAGGUAGGUCGCGAUCAAUGGG [Same State Arginine B GF 11] | nM | 47.9 |

Q: Give its apparent KD of MS2 coat protein value. Item: AACAUGAGGAUCACCCAUGUCCCAUGUGAACGAGGACCGGUACGGCCGCCACUCGAAUAAGGCGGCACAUGAGGAUCACCCACAU [AstrosSSTry#1]
A: 206

* * *

System: K4 kissing-loop RNA reporter;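 further: bound reporter read as fluorescence of individual clusters on recovered sequencing chips by microscopy, with normalized cluster intensities fitted with a binding model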
Procedure Details: apparent KD of K4 kissing-loop reporter; higher = weaker reporter binding
Condition Parameters: Eterna round: R107; input ligand: tryptophan 2.4 mM
The label depends only on apparent KD of K4 kissing-loop reporter: MET if it is at least 200 nM, NOT MET if it is smaller.

Consider the worked cases shown below.
| Sequence Chain | Experimental Target | Class Name |
| --- | --- | --- |
| UAGUGUCGCGCAGGAUAUACUGAUUGGAGUGAUGUUCCAAACAUGCACGUGUGACUUUUACAAGAAGUAGAAGGGCGUGAGACAU [Exclusion FMN B GF 22] | K4 kissing-loop RNA reporter | NOT MET |
| CAGAACUUGUAUAUAGGGUAUAUAAGAGAUACCAGUCAAAUUAAAGACCCUUGGCAGCUCAGGCGAGUGAUGUUCGCAGGCUAAC [Exclusion Theophylline A GF 17] | K4 kissing-loop RNA reporter | NOT MET |
| UCGGCGGAGUGAUGUUCCUAUGUCCAAGAUACCAGUCUAUGAACGGACCCUUGGCAGCUUCCAUUAGGUUACUAUUUAGACUCAU [theeternabot_exclusion_KL_Theo_A_10] | K4 kissing-loop RNA reporter | NOT MET |
| AGAGUCAGACAAAAGUCUGGCUCAGCCGAAGGAGCGUCCGAAAGGACAGGUAGGUCGCGGUUGCAUGAGUGAUGUUGAUGUUUUU [KL-SSArg-A23] | K4 kissing-loop RNA reporter | MET |
| GGCAUGGUGACGCGGCUGCCAUACGCUUGGGAGGAUAUGUUUCGUGACAGAAGGCCCAGUGAUGUUGGGUCUGUUCAAAAGGACU [Arisus] | K4 kissing-loop RNA reporter | NOT MET |

Now for another entry.
Q: Does apparent KD of K4 kissing-loop reporter meet or surpass 200 nM for AUCAGUGUCUCACGCUACGACAUAUACGAUACCAGUCACCCUGAUGACCCUUGGCAGCGUCAACGAGUGAUGUUCGGGUUCUAGA [theeternabot_sameState_KL_Theo_A_1] ?
A: MET

* * *

System: MS2 coat protein
Procedure Details: apparent KD of MS2 coat protein; designed switch direction (-1 OFF switch, 1 ON switch): -1; higher = weaker reporter binding
Condition Parameters: input ligand: microRNA oligo, concentration not stated
This section presents sequences with their documented apparent KD of MS2 coat protein values.
Answer with a number only, understood to be in nM.

| Sequence Chain | Experimental Target | apparent KD of MS2 coat protein / nM |
| --- | --- | --- |
| AGCUGUGGCCGAGGAUAUCUAAACUCAAUAACCGAAAUAUAAUCGGACAUGAGGAUCACCCAUGUAGAGAAGGCGGUCUCAGCA [Eli eng2 - 081] (Eterna round: R96, puzzle: Exclusion NG 2) | MS2 coat protein | 28 |
| AAACAAUCCCGAGGAUAUCGGCUAUUAGCAUGCCGAGAAGGCGGCGCGCAUCGACAUGAGGAUCACCCAUGUGUCCGCUCGGUU [Eternabot solution 31] (Eterna round: R96, puzzle: Exclusion NG 1) | MS2 coat protein | 13.6 |
| UUGAAGUCAUCAGGAUAUAGUAUUAAAGACAUUUAUUUUUUCAUACAUGAGGAUCACCCAUGUCGCUAGAAGGGAUUAUAGAUU [JR_ExcNG2_Sub079] (Eterna round: R96, puzzle: Exclusion NG 2) | MS2 coat protein | 38.4 |
| GGUAGAGUGGUAGGAUAUCCGUCUGUUUCAGUCGGAGAAGGACCACAGUCACUGGGUCCAUGUUUCAUGGAGACCUGAUCUACC [pwkr exNG1 F6.9] (Eterna round: R96, puzzle: Exclusion NG 1) | MS2 coat protein | 59.7 |
| GCCGUUAAGGUAGGAUAUGCUCGGUCUGUGCGUGCAGAAGGGCUGGUCGGCGACUUGAGGAUCACCCAAGUGGUCUUAUAGAAA [Mutated MS2 EX1.21] (Eterna round: R96, puzzle: Exclusion NG 1) | MS2 coat protein | 142 |
| CGUGGCCGGUGAGGAUAUUGAUGACAUGAGGAUCACCCAUGUGUAUCCUCUCGAAAUACCGUGAUCAAGAAGGCAUGGUGCCAC [Ritibe] (Eterna round: R96, puzzle: Exclusion NG 2) | MS2 coat protein | 12 |
| CCGCUCCGUGUAGGAUAUUGGCCUGCUCUGGGCCGAGAAGGACAUGAGGAUCACCCAUGUAUGUUAUUAUCACGCGUGGCGCAU [Design 79] (Eterna round: R96, puzzle: Exclusion NG 1) | MS2 coat protein | 14.5 |
| AGCUGUGGCCGAGGAUAUGACAUGAGGAUCACCCAUGUACAUAAUUAGGCCUGGUAACAGGCUCGUCAGAAGGCGGUCUCAGCA [Eli eng2 - 007] (Eterna round: R96, puzzle: Exclusion NG 2) | MS2 coat protein | 8.31 |

Q: Give its apparent KD of MS2 coat protein value. Item: UUAAUUCGGAUUCUUGAAAUACAUGAGGAUCACCCAUGUUCACAGGAUAUUGAUUAUGUUAGUAACAAGAAGGGUGUAACAUAU [JR_ExcNG3_Sub036] (Eterna round: R96, puzzle: Exclusion NG 3)
A: 31

Q: Give its apparent KD of MS2 coat protein value. Item: UUUGUUUAUGUAGGAUAUGCCUGGCGUGCCUUUGCAGAAGGACAUGAGGAUCACCCAUGUAUUGCGGUCUGCGUUCAGAUCGCA [salish99_ExNG1_r4_038] (Eterna round: R96, puzzle: Exclusion NG 1)
A: 30.2

Q: Give its apparent KD of MS2 coat protein value. Item: GCACGGAGUGUAGGAUAUCUGUGCGAUUAGCUCAGAGAAGGACACAUGAGGAUCACCCAUGUGUUCCAGCGAAAGCUUCCGUGC [Eli exng1 - 047] (Eterna round: R96, puzzle: Exclusion NG 1)
A: 9.32

Q: Give its apparent KD of MS2 coat protein value. Item: AUGCCGGUCCUCUCAGGUGUACAUGAGGAUCACCCAUGUCACGAGGAUAUCUAAGCGUGGUGGCCAGAGAAGGUGUGACAUGCU [Atibequ] (Eterna round: R96, puzzle: Exclusion NG 3)
A: 17.2

Q: Give its apparent KD of MS2 coat protein value. Item: CUAGCGGAUGUAGGAUAUCGGACUGUUUCAGUCUGAGAAGGACAUGAGGAUCACCCAUGUAUUGCUGCGUGAGUAGCACGCUAG [JL ENG1 3.97] (Eterna round: R96, puzzle: Exclusion NG 1)
A: 17.4

Q: Give its apparent KD of MS2 coat protein value. Item: CAAGAAAAGAAAGGAUAUAGCGCGGAGCCGCAGCUAGAAGGUUCGGUGGGUAUCCUGUAACAUGAGGAUCACCCAUGUAAAGAG [Texelara] (Eterna round: R96, puzzle: Exclusion NG 1)
A: 109

Q: Give its apparent KD of MS2 coat protein value. Item: AAAAUAAUAAGUUUACGAACAUUUAGAAAAAGGGAUCCAACAUGAGGAUCACCCAUGUAUUAUCAGCAUAAACCCUA [JR_Sensorv2_tov2_Sub1270] (Eterna round: R96, puzzle: Sensor v2, turn-off variant 2)
A: 270

Q: Give its apparent KD of MS2 coat protein value. Item: ACUAUACGAGGAUAUACUGACGGGCCUCAGGCAUCCAUCAGACAUGAGGAUCACCCAUGUAGAAGGCGUAUACU [JR_Exc002_Sub408] (Eterna round: R96, puzzle: Exclusion 2)
A: 44.4

Q: Give its apparent KD of MS2 coat protein value. Item: AUAAUUAGUUCAGGAUAUCAGCACGUUUAGUGCUGAGAAGGGAACAUGAGGAUCACCCAUGUGAUCAAUAUUAUAAUUUUAAUU [ENG1/12-B2] (Eterna round: R96, puzzle: Exclusion NG 1)
A: 754

Q: Give its apparent KD of MS2 coat protein value. Item: CCGGUUGGCGCAGGAUAUACAUGAGGAUCACCCAUGUUCAUGAGGAUCACCCAUGAGGUAAUGAUGUAGAAGGGUGGCCCGGCC [A second MS2 with the first and last base exchanged] (Eterna round: R96, puzzle: Exclusion NG 2)
A: 18.5

Q: Give its apparent KD of MS2 coat protein value. Item: ACGAUGAUCGAAAAGUGUAAAUCGACAUGAGGAUCACCCAUGUAGGAUAUGGCUACGAAAAGUAGUCAGAAGGGCAUGUCAUCA [3 Av 11 mod - 1] (Eterna round: R96, puzzle: Exclusion NG 3)
A: 25.7

From: the supplement of paper PMC9170038
